- TARGET_OR_SYSTEM: T1, recombinant human VEGF165 (human, UniProt P15692-4 27-191, biotinylated (Sulfo-NHS-LC-Biotin) in the competition assays)
- T1 construct: also called hVEGF165; rhVEGF165
- T1 sequence (P15692 other isoform, or with tags, fused parts or gaps limits assumed): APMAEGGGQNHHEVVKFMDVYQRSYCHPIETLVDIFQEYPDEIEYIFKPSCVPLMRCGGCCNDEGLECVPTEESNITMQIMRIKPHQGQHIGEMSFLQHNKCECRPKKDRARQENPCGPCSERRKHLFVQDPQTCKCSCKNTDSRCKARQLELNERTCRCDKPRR
- METHOD_SUMMARY: Biacore, periplasmic extract, VEGF165 chip, two phase decay fit
- Parameters: unit not given here
PARAMETER: kd(fast)

Sample records with kd(fast):
{"columns": ["BINDER", "ASSAY_VALUE"],
 "data": [
  ["VEGFBII22A10 (VHH, not shown: small tags and cut ends) VHH: EVQLVESGGGLVQPGDSLKLSCAFSGRTFSSYSMGWFRQAQGKEREFVVAISSSGGYIYDSVSLEGRFTISRDNTKNTVYLQTPSLKPEDTADYYCAASRAYGSSRLRLADTYDYWGQGTQVTVSS", 0.037],
  ["VEGFBII41B05 (VHH, not shown: small tags and cut ends) VHH: EVQLVESGGGLVQPGGSLRLSCAFSGRTFSSYSMGWFRQAQGKEREFVVAISSGGFIYDAVSLEGRFTISRDNTKNTVYLQTPSLKPEDTAVYYCAASRAYGSSRLRLADTYDYWGQGTQVTVSS", 0.019],
  ["VEGFBII23A06 (VHH, not shown: small tags and cut ends, also purified from E. coli TG1; also called VEGFBII23A6; 23A6) VHH: EVQLVESGGGLVQPGDSLKLSCAFSGRTFSSYSMGWFRQAQGKEREFVVAISSGGFIYDAVSLEGRFTISRDNTKNTVYLQTPSLKPEDTAVYYCAASRAYGSSRLRLADTYDYWGQGTQVTVSS", 0.017]
]}

query: Dear colleague, I am looking for the recorded kd(fast) of the following binder: VEGFBII41G03 (VHH, not shown: small tags and cut ends) VHH: EVQLVESGGGLVQPGDSLKLSCAFSGRTFSSYSMAWFRQAQGKEREFVVAISSGGFIYDAVSLEGRFTISRENTKNTVYLQTPSLKPEDTAVYYCAASRAYGSSRLRLADTYDYWGQGTQVTVSS
result: 0.012
